Molecular target: p38-alpha kinase (Homo sapiens, UniProt Q16539)
Sequence (Q16539 whole entry): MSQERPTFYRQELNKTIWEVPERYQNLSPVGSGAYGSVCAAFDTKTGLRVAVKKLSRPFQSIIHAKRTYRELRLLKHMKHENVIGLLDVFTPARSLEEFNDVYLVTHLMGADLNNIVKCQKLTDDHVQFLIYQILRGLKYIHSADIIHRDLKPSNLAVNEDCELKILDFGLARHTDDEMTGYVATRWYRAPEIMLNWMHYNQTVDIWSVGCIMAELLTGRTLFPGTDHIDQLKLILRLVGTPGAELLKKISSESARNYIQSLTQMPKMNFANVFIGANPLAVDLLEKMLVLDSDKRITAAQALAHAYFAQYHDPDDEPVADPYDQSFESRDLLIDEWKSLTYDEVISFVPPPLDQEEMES
Conditions: time-dependent if IC50 values decrease with reaction time (more than two-fold in four hours)
parameter: Time-dependent

CC(C)(C)c1cc(NC(=O)Nc2cccc3ccccc23)n(-c2cccc(CC(=O)N3CCOCC3)c2)n1 [Example 21]
Yes
CC1(C(=O)O)CC2(C)CC(C)(C1)C(=O)N(Cc1cccc(-n3nc(C(C)(C)C)cc3NC(=O)Nc3ccc(Cl)cc3)c1)C2=O (stereo not shown) [Example 12]
No
CC1(C(=O)O)CC2(C)CC(C)(C1)C(=O)N(Cc1cccc(-n3nc(C(C)(C)C)cc3NC(=O)Nc3cccc4ccccc34)c1)C2=O (stereo not shown) [Example 11]
No
CC(C)(C)c1cc(NC(=O)Nc2cccc3ccccc23)n(-c2ccc(CN)cc2)n1 [Example 45]
No

---

Please respond with reported IC50 for every item in the list.
Target: unphosphorylated p38-alpha kinase (Homo sapiens, UniProt Q16539, DEL261-261)
Construct: 48 (6×His-TEV tag, full length); 6×His-TEV tag (N)
Sequence (Q16539 with tags, fused parts or gaps DEL261-261): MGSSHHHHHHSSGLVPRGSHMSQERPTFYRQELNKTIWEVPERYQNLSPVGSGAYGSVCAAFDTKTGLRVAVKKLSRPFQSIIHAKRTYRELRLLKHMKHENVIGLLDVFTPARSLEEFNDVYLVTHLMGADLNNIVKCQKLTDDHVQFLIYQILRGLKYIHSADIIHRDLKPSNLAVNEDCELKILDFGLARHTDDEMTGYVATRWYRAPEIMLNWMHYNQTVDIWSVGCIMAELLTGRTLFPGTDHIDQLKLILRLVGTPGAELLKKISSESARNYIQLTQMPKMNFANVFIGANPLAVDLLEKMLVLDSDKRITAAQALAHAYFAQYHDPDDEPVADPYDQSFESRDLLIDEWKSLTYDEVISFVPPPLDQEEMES
Assay: Fluorescence affinity assay, unphosphorylated p38-alpha kinase
Details: ~24 nM enzyme; 1.0 uM SKF-86002; read-out: FP IC50 U-p38-alpha
Answer format: value, then unit.

IC50 in this record for CC(C)(C)c1cc(NC(=O)Nc2cccc(Cl)c2Cl)n(-c2ccc(CC(=O)N3CCS(=O)(=O)CC3)cc2)n1 : 7 nM

Form field IC50, entry NC(=O)Cc1cccc(-n2nc(-c3ccccc3)cc2NC(=O)Nc2cccc(Cl)c2Cl)c1 : 25 nM

The compound listed as CC(C)(C)c1cc(NC(=O)Nc2cccc(Oc3cccnc3)c2)n(-c2cccc(CC(N)=O)c2)n1 shows IC50 equal to 16 nM

Short answer for CC(C)(C)c1cc(NC(=O)Nc2cccc3ccccc23)n(-c2cccc(C(C)(C)O)c2)n1 : IC50 was 165 nM

---

Biological target: unphosphorylated p38-alpha kinase (Homo sapiens, UniProt Q16539, DEL261-261)
Construct: 48 (6×His-TEV tag, full length); 6×His-TEV tag (N); purchased Decode Genetics, Inc; host or cells: E. coli
Test: Thermal denaturation of unphosphorylated p38-alpha kinase
Assay type: binding
Details: […] p38-alpha kinase, 15 μM small molecule
Tag: 1 (yes) if measured ΔTm (° C.) relative to unphosphorylated apo p38 is not below 10 °C, 0 (no) if it is.

Query: Does the reported ΔTm (° C.) relative to unphosphorylated apo p38 for CC(C)(C)c1cc(NC(=O)Nc2cccc3ccccc23)n(-c2cccc(CO)c2)n1 [Example 71] fall at or above the 10 °C mark?
Reply: 1 (yes)

Query: # bool: ΔTm (° C.) relative to unphosphorylated apo p38 of NC(=O)Cc1cccc(-n2nc(-c3ccccc3)cc2NC(=O)Nc2cccc(Cl)c2Cl)c1 [Example 77] >= 10 °C
Reply: 0 (no)

Query: Assess whether reported ΔTm (° C.) relative to unphosphorylated apo p38 for CC(C)(C)c1cc(NC(=O)Nc2cccc3ccccc23)n(-c2cccc(C(C)(C)O)c2)n1 [Example 75] sits at 10 °C or higher.
Reply: 0 (no)

Query: State whether the measured ΔTm (° C.) relative to unphosphorylated apo p38 reaches 10 °C, counting equality as reaching it, for CC(C)(C)c1cc(NC(=O)Nc2cccc3ccccc23)n(-c2ccc(CO)cc2)n1 [Example 72]
Reply: 1 (yes)

Query: Would you say CC(C)(C)c1cc(NC(=O)Nc2cccc(Cl)c2Cl)n(-c2ccc(CC(N)=O)cc2)n1 [Example 76] shows ΔTm (° C.) relative to unphosphorylated apo p38 at minimum 10 °C?
Reply: 1 (yes)

Query: Exam item: decide whether the reported ΔTm (° C.) relative to unphosphorylated apo p38 for CC(C)(C)c1cc(NC(=O)Nc2cccc3ccccc23)n(-c2ccc(C(O)C(F)(F)F)cc2)n1 (stereo not drawn) [Example 73] is at least 10 °C.
Reply: 0 (no)

---

Biological target: doubly phosphorylated p38-alpha kinase (Homo sapiens, UniProt Q16539)
Sequence (Q16539 with tags, fused parts or gaps): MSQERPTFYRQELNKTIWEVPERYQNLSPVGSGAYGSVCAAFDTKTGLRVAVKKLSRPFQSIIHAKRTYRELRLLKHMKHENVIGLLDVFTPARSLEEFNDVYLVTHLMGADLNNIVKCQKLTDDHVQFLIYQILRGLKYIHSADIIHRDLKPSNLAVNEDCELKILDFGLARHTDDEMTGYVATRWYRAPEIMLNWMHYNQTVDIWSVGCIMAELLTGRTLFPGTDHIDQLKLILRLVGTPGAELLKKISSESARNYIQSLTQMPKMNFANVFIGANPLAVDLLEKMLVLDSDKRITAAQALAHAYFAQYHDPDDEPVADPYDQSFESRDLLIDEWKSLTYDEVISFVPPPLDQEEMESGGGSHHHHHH
I'd appreciate it if you could supply pIC50 values for the items below.
Hey, just a heads up that pIC50 is the negative log base 10 of the concentration in molar.

Observed pIC50 on doubly phosphorylated p38-alpha kinase (Homo sapiens, UniProt Q16539), entry CC1(O)CCN(C(=O)Cc2ccc(-n3nc(C(C)(C)C)cc3NC(=O)Nc3cccc(Cl)c3Cl)cc2)CC1 , equals 7.59

Lab entry: doubly phosphorylated p38-alpha kinase (Homo sapiens, UniProt Q16539) assay, molecule NC(=O)Cc1cccc(-n2nc(-c3cscn3)cc2NC(=O)Nc2cccc(Cl)c2Cl)c1 , pIC50 = 6.71

Response field pIC50 (doubly phosphorylated p38-alpha kinase (Homo sapiens, UniProt Q16539)) for item CC(C)(C)c1cc(NC(=O)Nc2cccc(Cl)c2Cl)n(-c2ccc(CC(N)=O)cc2)n1 : 7.59

Reading of pIC50 for CC(C)(C)c1cc(NC(=O)Nc2cccc3ccccc23)n(-c2ccc(OCC(=O)O)cc2)n1 with doubly phosphorylated p38-alpha kinase (Homo sapiens, UniProt Q16539): 6.80

---

Provide the recorded ΔTm (° C.) relative to unphosphorylated Abl for the entries that follow.
Tested on: Abl kinase
Assay: Thermal denaturation of Abl kinase
Format: binding, human
Settings: 1 μM Abl kinase, 20 μM small molecule
State the answer as a number, implicitly in °C.

Abl kinase ΔTm (° C.) relative to unphosphorylated Abl of CC(C)(C)c1cc(NC(=O)Nc2cccc(Cl)c2Cl)n(-c2cc(CO)c3ccccc3c2)n1 [Example 87] is 3.6

The compound COc1ccc(-n2nc(C(C)(C)C)cc2NC(=O)Nc2cccc(Cl)c2Cl)cc1 [Example 91] , tested on Abl kinase, showed ΔTm (° C.) relative to unphosphorylated Abl of 12.5

Measured ΔTm (° C.) relative to unphosphorylated Abl for this entry CC(C)(C)c1cc(NC(=O)Nc2cccc(Cl)c2Cl)n(-c2ccc3c(c2)CNCC3)n1 [Example 64] on Abl kinase: 2.6

Test item CC(C)(C)c1cc(NC(=O)Nc2cccc(Cl)c2Cl)n(-c2ccc3c(c2)CN(S(C)(=O)=O)CC3)n1 [Example 80] ; Abl kinase; reported ΔTm (° C.) relative to unphosphorylated Abl was 2.3

// ΔTm (° C.) relative to unphosphorylated Abl (Abl kinase) for CC(C)(C)c1cc(NC(=O)Nc2cccc(Cl)c2Cl)n(-c2cccc(C(=N)N)c2)n1 [Example 90] = 1.3
